Origin of values: patent US20100056516A1

log10(IC50) overview
molecular target: HIV integrase (Human immunodeficiency virus type 1 group M subtype B); assay: integrase strand transfer assay (STA); type: biochemical; details: integrase strand-transfer assay, Example 269; read-out: STA (IC50)
Scale: log10; quantity: IC50; unit before log: nM

Past entries and their recorded results:
O=c1c(-c2cccc(Cl)c2)c(O)c2cccnc2n1O [Example 33] ... 2.26
O=c1c(-c2ccccc2)c(O)c2cc(F)cnc2n1O [Example 48] ... 1.36
O=c1c(Cc2ccccc2)c(O)c2cc(Cc3ccccc3)cnc2n1O [Example 66] ... 1.30

Ask: Look up log10(IC50) for this compound: NCc1cccc(-c2cccc(Cc3cc(=O)n(O)c4ncccc34)c2)c1 [Example 231]
Reply: 3.04

Ask: Try O=c1c(-c2cccc(C(F)(F)F)c2)c(O)c2cccnc2n1O [Example 28] next.
Reply: 2.41

Ask: Request: CCOC(=O)c1c(O)c2c(-c3cccc(CN(C)C)c3)ccnc2n(O)c1=O [Example 230]
Reply: 3.36

Ask: Would you mind doing COc1cccc(-c2c(O)c3cccnc3n(O)c2=O)c1 [Example 40] as well?
Reply: 2.79

----------
target: UniProt P04585; experiment: ASH assay: RNase H mediated RNA cleavage (ECL format, BioVeris M384); format: biochemical; details: RNase H mediated RNA cleavage assay, Example 269; read-out: ASH (IC50)
measuredParameter: pIC50
The quantity pIC50 is defined as the negative base-10 logarithm of the molar concentration.

Worked set:
CCOC(=O)c1ccnc2c1c(-c1ccc(-c3ccc(CN)cc3)cc1)cc(=O)n2O ... 6.54
O=c1c(Cc2ccccc2)c(O)c2cc(Cc3ccccc3)cnc2n1O ... 6.31
NCc1cccc(-c2cccc(Cc3cc(=O)n(O)c4ncccc34)c2)c1 ... 6.47
O=c1c(-c2cccc(C(F)(F)F)c2)c(O)c2cccnc2n1O ... 6.92

Ask: Request the reported pIC50 associated with `O=c1cc(N2CCc3ncccc3C2)c2cccnc2n1O`
Reply: 6.96

Ask: Also `O=c1c(-c2ccccc2)c(O)c2cc(F)cnc2n1O` , if possible.
Reply: 6.70

Ask: Do the same for `CCOC(=O)c1c(O)c2cc(-c3cccc(O)c3)cnc2n(O)c1=O` please
Reply: 6.82

Ask: And the next one, `CCOC(=O)c1c(O)c2cc(-c3cccc(CN4CCOCC4)c3)cnc2n(O)c1=O` ?
Reply: 6.28

Ask: Note, next up: `CCOC(=O)c1c(O)c2cc(C(=O)N(C)CCc3ccccc3)cnc2n(O)c1=O`
Reply: 6.57

----------
Each entry below carries its reported pIC50.
biological target: HIV integrase (Human immunodeficiency virus type 1 group M subtype B, UniProt P04585); experiment: integrase strand transfer assay (STA); type: biochemical; details: integrase strand transfer; read-out: IC50 in the STA assay
pIC50: −log10 of the molar value.

Field: example entries. Status: answers known.
CN(C)C(=O)c1cccc(-c2cc(=O)n(O)c3ncccc23)c1 [Example 181] ... > 4.30
CCOC(=O)c1c(-c2cc(CCc3ccccc3F)cc(-c3ccc(CN)cc3)c2)c2cccnc2n(O)c1=O [Example 263] ... > 4.30
CC(Nc1cc(=O)n(O)c2ncccc12)c1ccccc1 (stereo not drawn) [Example 157] ... > 4.30
O=C(NCc1ccccc1)c1ccc2c(c1)CCN(c1cc(=O)n(O)c3ncccc13)C2 [Example 261] ... > 4.30
CNS(=O)(=O)c1cccc(-c2cc(=O)n(O)c3ncccc23)c1 [Example 193] ... > 4.30

Ask: Value lookup for pIC50; key = O=c1cc(N2CCc3ncccc3C2)c2cccnc2n1O [Example 123]
Reply: > 4.30

Ask: Continue with NCc1ccc(-c2cccc(Cc3cc(=O)n(O)c4ncccc34)c2)cc1 [Example 232]
Reply: > 4.30

Ask: Please give the result for NCc1cccc(-c2cccc(Cc3cc(=O)n(O)c4ncccc34)c2)c1 [Example 231] too.
Reply: > 4.30

Ask: Likewise for CC(Br)Cc1cnc2c(c1)c(O)c(-c1ccccc1)c(=O)n2O (stereo not drawn) [Example 74] ?
Reply: > 4.30

----------
molecular target: HIV integrase (Human immunodeficiency virus type 1 group M subtype B, UniProt P04585); experiment: integrase strand transfer assay (STA); assay type: biochemical; conditions: integrase strand transfer; read-out: IC50 in the STA assay
pIC50: −log10 of the molar value.
measuredParameter: pIC50

O=c1cc(N2CCC(Cc3ccccc3)CC2)c2cccnc2n1O [Example 133] ... > 4.30

Ask: Report pIC50 for O=C(NCCc1ccccc1)c1ccc2c(c1)CN(c1cc(=O)n(O)c3ncccc13)CC2 [Example 260] please.
Reply: > 4.30

Ask: Could you do the same for O=C(NC1CC1)c1c(O)c2cccnc2n(O)c1=O [Example 6] , please?
Reply: > 4.30

Ask: Try the molecule O=c1cc(NC2CCN(Cc3ccccc3)CC2)c2cccnc2n1O [Example 108]
Reply: > 4.30

Ask: Please answer likewise for O=c1cc(NC(CN2CCCCC2)c2ccccc2)c2cccnc2n1O (stereo not drawn) [Example 166]
Reply: > 4.30

Ask: What do you have for O=c1cc(N[C@@H]2CCN(Cc3ccccc3)C2)c2cccnc2n1O [Example 113] ?
Reply: > 4.30

----------
system: HeLa P4-2 cell line; details: human
measuredParameter: Cytotoxicity (LD50, μM) (µM)
Your answer is read as µM, so omit the unit and give the number.

O=c1c(-c2ccccn2)c(O)c2cccnc2n1O ... 6.2

Ask: May I ask what Cytotoxicity (LD50, μM) has been recorded for `O=c1c(Cc2ccccc2)c(O)c2cc(Cc3ccccc3)cnc2n1O` ?
Reply: 34

Ask: Also `NCc1ccc(-c2ccc(Cc3cc(=O)n(O)c4ncccc34)cc2)cc1` ?
Reply: 7.8

Ask: And `NCc1ccc(-c2ccc(-c3c(-c4ccccc4)c(=O)n(O)c4ncc(F)cc34)cc2)cc1` ?
Reply: 310

----------
Listed compounds paired with reported IC50
molecular target: HIV integrase (Human immunodeficiency virus type 1 group M subtype B, UniProt P04585); assay: integrase strand transfer assay (STA); assay type: biochemical; settings: STA (IC50, μM), integrase strand-transfer assay, Example 269
Enter your answer as a number in µM; do not include the unit.

CN(C)CCC(Nc1cc(=O)n(O)c2ncccc12)c1ccccc1 (stereo not shown) ... 6.5
O=c1cc(NCc2ccccn2)c2cccnc2n1O ... 0.7
O=c1cc(N2CCc3ccc(-c4cccnc4)cc3C2)c2cccnc2n1O ... 1.8
CN1CCN(Cc2cccc(CNc3cc(=O)n(O)c4ncccc34)c2)CC1 ... 1.7
O=c1cc(NC2CCN(c3ccccc3)CC2)c2cccnc2n1O ... 1.7
O=C(NC1CCN(Cc2ccccc2)CC1)c1c(O)c2cccnc2n(O)c1=O.O=C(O)C(F)(F)F ... 0.25
O=c1cc(Nc2ccccc2N2CCOCC2)c2cccnc2n1O ... 0.22
O=c1cc(NC2CCCc3ccccc32)c2cccnc2n1O (stereo not shown) ... 0.19

Read the next record carefully.
Ask: Recall the recorded IC50 for `NCc1cccc(-c2cc(=O)n(O)c3ncccc23)c1` with HIV integrase (Human immunodeficiency virus type 1 group M subtype B, UniProt P04585) and state it.
Reply: 0.22

----------
target: HIV-1 reverse transcriptase (RNase H) (Human immunodeficiency virus type 1 group M subtype B, UniProt P04585); test: ASH assay: RNase H mediated RNA cleavage (ECL format, BioVeris M384); type: biochemical; conditions: RNase H mediated RNA cleavage assay, Example 269; read-out: ASH (IC50)
Let's look at some compounds and their measured IC50.
State the answer as a number, implicitly in nM.

# example entries with known answers
COc1cccc(-c2c(O)c3cccnc3n(O)c2=O)c1 [Example 40] ... 110
CCOC(=O)c1c(O)c2c(-c3cccc(CN(C)C)c3)ccnc2n(O)c1=O [Example 230] ... 110

Please find the next compound below.
Ask: Find the recorded IC50 belonging to O=c1c(-c2cccc(Cl)c2)c(O)c2cccnc2n1O [Example 33] and report it.
Reply: 47

----------
molecular target: HIV integrase (Human immunodeficiency virus type 1 group M subtype B); experiment: integrase strand transfer assay (STA); format: biochemical; details: integrase strand transfer; read-out: IC50 in the STA assay
pIC50: −log10 of the molar value.
measuredParameter: pIC50

Ask: Given the compound CCOC(=O)c1c(O)c2cc(-c3ccccc3OC)cnc2n(O)c1=O [Example 61] , what is its reported pIC50?
Reply: > 4.30

Ask: Also, O=c1c(-c2ccccc2)c(O)c2cc(-c3ccc4ccccc4c3)cnc2n1O [Example 56] please.
Reply: > 4.30

Ask: For NC1(c2cccc(-c3ccc(-c4cc(=O)n(O)c5ncccc45)cc3)c2)CC1 [Example 238] then?
Reply: > 4.30
